# Lookup of reported pKi keyed by entry
Target: hsst3 (Homo sapiens, UniProt P32745)
Construct: expressed in transfected cells
Sequence (P32745 whole entry): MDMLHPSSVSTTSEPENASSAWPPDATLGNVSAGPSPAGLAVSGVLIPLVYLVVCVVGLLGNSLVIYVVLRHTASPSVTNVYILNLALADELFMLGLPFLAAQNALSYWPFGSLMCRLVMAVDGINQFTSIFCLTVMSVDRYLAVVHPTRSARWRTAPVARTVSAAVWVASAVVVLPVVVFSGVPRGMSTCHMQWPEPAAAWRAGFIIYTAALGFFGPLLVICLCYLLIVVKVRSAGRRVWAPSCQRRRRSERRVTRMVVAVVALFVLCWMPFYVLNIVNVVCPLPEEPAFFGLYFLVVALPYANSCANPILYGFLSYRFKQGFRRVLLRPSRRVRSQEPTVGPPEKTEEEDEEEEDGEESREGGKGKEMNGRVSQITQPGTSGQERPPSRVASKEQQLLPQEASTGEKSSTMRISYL
Assay: Somatostatin receptor radioligand binding assay, hsst3
Details: CHO-K1 membranes, [125I-Tyr11]SS-14; read-out: hsst3 Ki
pKi: −log10 of the molar value. Bridge positions count the residues as written; N and C are the ends. Square brackets hold non-standard residues; d marks the D form. Peptide text beside a SMILES is read from it. * marks the point of attachment. X1 = CCCN1C[C@H](CSCC(=O)*)C[C@@H]2c3cccc4[nH]cc(c34)C[C@H]21; Abu = CC[C@H](N)C(=O)O

{"columns": ["molecule", "target", "pKi"],
 "data": [
  ["CCCN1C[C@H](CSCC(=O)NCCCC[C@H](NC(=O)CSC[C@@H]2C[C@@H]3c4cccc5[nH]cc(c45)C[C@H]3N(CCC)C2)C(=O)N[C@H](Cc2ccc(O)cc2)C(=O)N[C@H](Cc2ccc(O)cc2)C(=O)N[C@H]2CSSC[C@@H](C(=O)N[C@H](C(N)=O)[C@@H](C)O)NC(=O)[C@H](CC)NC(=O)[C@H](CCCCN)NC(=O)[C@@H](Cc3c[nH]c4ccccc34)NC(=O)[C@H](Cc3ccc(O)cc3)NC2=O)C[C@@H]2c3cccc4[nH]cc(c34)C[C@H]21 [Example 10] (X1-K(X1)[dY][dY]CY[dW]K[Abu]CT-NH2; disulfide 4-9)", "hsst3 (Homo sapiens, UniProt P32745)", 6.49],
  ["CCCN1C[C@H](CSCC(=O)NCCCC[C@H](NC(=O)CSC[C@@H]2C[C@@H]3c4cccc5[nH]cc(c45)C[C@H]3N(CCC)C2)C(=O)N[C@H](Cc2ccccc2)C(=O)N[C@H]2CSSC[C@@H](C(=O)N[C@H](C(N)=O)[C@@H](C)O)NC(=O)[C@H](CC)NC(=O)[C@H](CCCCN)NC(=O)[C@@H](Cc3c[nH]c4ccccc34)NC(=O)[C@H](Cc3ccc(O)cc3)NC2=O)C[C@@H]2c3cccc4[nH]cc(c34)C[C@H]21", "hsst3 (Homo sapiens, UniProt P32745)", 6.97],
  ["CCCN1C[C@H](CSCC(=O)N[C@@H](CCCCN)C(=O)N[C@H](Cc2ccc(O)cc2)C(=O)N[C@H](Cc2ccc(O)cc2)C(=O)N[C@H]2CSSC[C@@H](C(=O)N[C@H](C(N)=O)[C@@H](C)O)NC(=O)[C@H](CC)NC(=O)[C@H](CCCCN)NC(=O)[C@@H](Cc3c[nH]c4ccccc34)NC(=O)[C@H](Cc3ccc(O)cc3)NC2=O)C[C@@H]2c3cccc4[nH]cc(c34)C[C@H]21 [Example 35] (X1-K[dY][dY]CY[dW]K[Abu]CT-NH2; disulfide 4-9)", "hsst3 (Homo sapiens, UniProt P32745)", 6.96]
]}
